target: Human neutrophil elastase (Homo sapiens (Human)); experiment: Human Neutrophil Elastase Assay; details: substrate MeOSuc-Ala-Ala-Pro-Val-AMC 250 μM, fluorescence, pH 7.5
property_measured: IC50 (nM)

INSERT INTO measurements (molecule, assayed_target, test_result) VALUES
  ('CCn1cc(C(=O)NCc2ccc(S(=O)(CC)=NC#N)cc2)c(=O)c(-c2cccc(C(F)F)c2)c1C (stereo not drawn) [Example 29]', 'Human neutrophil elastase (Homo sapiens (Human))', 1.5);

1: Cc1c(-c2cccc(C(F)F)c2)c(=O)c(C(=O)NCc2ccc(S(C)(=O)=NC#N)c(F)c2)cn1C(C)C (stereo not drawn)
2: Cc1c(-c2cccc(C(F)F)c2)c(=O)c(C(=O)NCc2ccc(S(C)(=O)=NC#N)cc2F)cn1C(C)C (stereo not drawn)
Exam item: Hi there! Just curious which has the higher IC50 between 1 and 2 . # respond with the chosen item's label
Marked response: 2

###

biological target: Human neutrophil elastase (Homo sapiens (Human)); experiment: Human Neutrophil Elastase Assay; details: substrate MeOSuc-Ala-Ala-Pro-Val-AMC 250 μM, fluorescence, pH 7.5
pIC50: −log10 of the molar value.
property_measured: pIC50

These solved cases illustrate the format of a correct answer.
INSERT INTO assay_data (molecule, property_measured, test_result) VALUES
  ('Cc1cc(S(C)(=O)=NC#N)ccc1CNC(=O)c1cn(C(C)C)c(C)c(-c2cccc(C(F)F)c2)c1=O (stereo not drawn)', 'pIC50', 8.62),
  ('Cc1c(-c2cccc(C(F)F)c2)c(=O)c(C(=O)NCc2ccc(S(C)(=O)=NC#N)cc2)cn1C(C)C (stereo not drawn) [Example 1B]', 'pIC50', 8.89),
  ('Cc1c(-c2cccc(C(F)F)c2)c(=O)c(C(=O)NCc2ccc(S(C)(=O)=NC#N)cc2)cn1-c1ccncc1 (single isomer, unassigned)', 'pIC50', 8.40);

a: Cc1ccc(-n2cc(C(=O)NCc3ccc(S(C)(=O)=NC#N)cc3)c(=O)c(-c3cccc(C(F)(F)F)c3)c2C)cn1 (stereo not drawn)
b: Cc1c(-c2ccc(F)c(C(F)(F)F)c2)c(=O)c(C(=O)NCc2ccc(S(C)(=O)=NC#N)cc2)cn1C(C)C (single isomer, unassigned)
Exam item: Hi there! Just curious which has the higher pIC50 between a and b . # respond with the chosen item's label
Marked response: b
(b: 8.74, a: 8.33)

###

Target: Human neutrophil elastase (Homo sapiens (Human))
Experiment: Human Neutrophil Elastase Assay
Conditions: substrate MeOSuc-Ala-Ala-Pro-Val-AMC 250 μM, fluorescence, pH 7.5
Method: Human Neutrophil Elastase Assay All other materials were of the highest grade commercially available. […] Assay conditions: Test compounds were prediluted in DMSO and subsequently in compound buffer (5% DMSO final). […] After inactivation of the enzyme, fluorescence intensities were measured at 380 nm excitation and 460 nm emission wavelengths. […]
property_measured: IC50 (nM)

P: Cc1c(-c2cccc(C(F)(F)F)c2)c(=O)c(C(=O)NCc2ccc(S(=O)(=NC#N)C(C)C)cc2)cn1-c1ccnn1C (stereo not drawn) [Example 19]
Q: Cc1c(-c2cccc(C(F)F)c2)c(=O)c(C(=O)NCc2ccc(S(C)(=O)=NS(C)(=O)=O)cc2)cn1C(C)C (stereo not drawn) [Example 35]
R: Cc1c(-c2cccc(C(F)(F)F)c2)c(=O)c(C(=O)NCc2ccc(S(C)(=O)=NC#N)c(F)c2)cn1C(C)C (stereo not drawn) [Example 13]
S: Cc1c(-c2cccc(C(F)(F)F)c2)c(=O)c(C(=O)NCc2ccc(S(C)(=O)=NC#N)cc2F)cn1C(C)C (stereo not drawn) [Example 14]
T: Cc1c(-c2ccnc(C(F)(F)F)c2)c(=O)c(C(=O)NCc2ccc(S(C)(=O)=NC#N)cc2)cn1C(C)C (single isomer, unassigned) [Example 3B]
Exam item: Order the records, beginning with the lowest IC50 and ending with the highest. Ranked list of labels, please, in the requested order.
Marked response: P, S, R, T, Q

###

target: Human neutrophil elastase (Homo sapiens (Human)); assay: Human Neutrophil Elastase Assay; details: substrate MeOSuc-Ala-Ala-Pro-Val-AMC 250 μM, fluorescence, pH 7.5
property_measured: IC50 (nM)

These solved cases illustrate the format of a correct answer.
INSERT INTO measurements (compound, assayed_target, test_result) VALUES
  ('Cc1c(-c2cccc(C(F)(F)F)c2)c(=O)c(C(=O)NCc2ccc(S(C)(=O)=NC#N)cc2)cn1C1CCCOC1 (centres unmarked)', 'Human neutrophil elastase (Homo sapiens (Human))', 1.8),
  ('CCn1cc(C(=O)NCc2ccc(S(C)(=O)=NC#N)cc2)c(=O)c(-c2cccc(C(F)(F)F)c2)c1C (single isomer, unassigned) [Example 4A]', 'Human neutrophil elastase (Homo sapiens (Human))', 4.1),
  ('Cc1c(-c2cccc(C(F)F)c2)c(=O)c(C(=O)NCc2ccc(S(C)(=O)=NC#N)cc2)cn1C(C)C (single isomer, unassigned) [Example 1A]', 'Human neutrophil elastase (Homo sapiens (Human))', 3.1),
  ('Cc1c(-c2cccc(C(F)F)c2)c(=O)c(C(=O)NCc2ccc(S(C)(=O)=NC#N)cc2)cn1-c1ccnn1C (centres unmarked)', 'Human neutrophil elastase (Homo sapiens (Human))', 2.1),
  ('Cc1c(-c2cccc(C(F)(F)F)c2)c(=O)c(C(=O)NCc2ccc(S(C)(=O)=NC#N)cc2)cn1C1CCOCC1 (centres unmarked)', 'Human neutrophil elastase (Homo sapiens (Human))', 2.3);

I: CCn1cc(C(=O)NCc2ccc(S(C)(=O)=NC#N)cc2)c(=O)c(-c2cccc(C(F)(F)F)c2)c1C (single isomer, unassigned) [Example 4B]
II: Cc1c(-c2cccc(C(F)(F)F)c2)c(=O)c(C(=O)NCc2ccc(S(C)(=O)=NC#N)cc2)cn1-c1ccccn1 (single isomer, unassigned)
III: Cc1c(-c2cccc(C(F)(F)F)c2)c(=O)c(C(=O)NCc2ccc(S(C)(=O)=NC#N)cc2)cn1C1CCOC1 (centres unmarked)
Exam item: In this exercise, place the 3 compounds in ascending sequence of their recorded IC50. Ranked list of labels, please, in the requested order.
Marked response: I, III, II
(I: 1.6 nM, III: 2.3 nM, II: 4.3 nM)

###

Catalogue of pIC50 readings, one per entry.
target: Human neutrophil elastase (Homo sapiens (Human), UniProt P08246); assay: Human Neutrophil Elastase Assay; conditions: substrate MeOSuc-Ala-Ala-Pro-Val-AMC 250 μM, fluorescence, pH 7.5
Sequence (P08246 30-247): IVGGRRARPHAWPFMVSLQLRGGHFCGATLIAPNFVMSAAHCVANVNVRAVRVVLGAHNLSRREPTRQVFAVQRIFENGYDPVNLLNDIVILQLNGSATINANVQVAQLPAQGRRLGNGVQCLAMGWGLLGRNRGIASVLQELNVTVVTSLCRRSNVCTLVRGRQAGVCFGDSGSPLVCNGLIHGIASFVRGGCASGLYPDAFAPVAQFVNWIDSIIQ
pIC50: −log10 of the molar value.

These solved cases illustrate the format of a correct answer.
INSERT INTO assay_data (compound, property_measured, test_result) VALUES
  ('CCn1cc(C(=O)NCc2ccc(S(=O)(=NC#N)C(C)C)cc2)c(=O)c(-c2cccc(C(F)F)c2)c1C (single isomer, unassigned) [Example 30B]', 'pIC50', '> 9.00'),
  ('CCS(=O)(=NC#N)c1ccc(CNC(=O)c2cn(C(C)C)c(C)c(-c3cccc(C(F)(F)F)c3)c2=O)cc1 (stereo not drawn) [Example 12]', 'pIC50', '> 9.00'),
  ('Cc1c(-c2cccc(C(F)(F)F)c2)c(=O)c(C(=O)NCc2ccc(S(C)(=O)=NC#N)cc2)cn1Cc1ccc(C#N)cc1 (stereo not drawn) [Example 9]', 'pIC50', '> 9.00'),
  ('CCn1cc(C(=O)NCc2ccc(S(=O)(=NC#N)C(C)C)cc2)c(=O)c(-c2cccc(C(F)F)c2)c1C (stereo not drawn) [Example 30]', 'pIC50', '> 9.00'),
  ('CCn1cc(C(=O)NCc2ccc(S(=O)(=NC#N)C(C)C)cc2)c(=O)c(-c2cccc(C(F)(F)F)c2)c1C (stereo not drawn) [Example 11]', 'pIC50', '> 9.00');

Shift focus to the following entry.
Exam item: Quick one: pIC50 for Cc1c(-c2cccc(C(F)(F)F)c2)c(=O)c(C(=O)NCc2ccc(S(C)(=O)=NC#N)cc2)cn1C1CC1 (single isomer, unassigned) [Example 20] ?
Marked response: 8.25
